Assay System: T1, EsCas13d, nuclease-dead (Eubacterium siraeum, UniProt B0MS50, R295A;H300A;R849A;H854A)
T1 sequence: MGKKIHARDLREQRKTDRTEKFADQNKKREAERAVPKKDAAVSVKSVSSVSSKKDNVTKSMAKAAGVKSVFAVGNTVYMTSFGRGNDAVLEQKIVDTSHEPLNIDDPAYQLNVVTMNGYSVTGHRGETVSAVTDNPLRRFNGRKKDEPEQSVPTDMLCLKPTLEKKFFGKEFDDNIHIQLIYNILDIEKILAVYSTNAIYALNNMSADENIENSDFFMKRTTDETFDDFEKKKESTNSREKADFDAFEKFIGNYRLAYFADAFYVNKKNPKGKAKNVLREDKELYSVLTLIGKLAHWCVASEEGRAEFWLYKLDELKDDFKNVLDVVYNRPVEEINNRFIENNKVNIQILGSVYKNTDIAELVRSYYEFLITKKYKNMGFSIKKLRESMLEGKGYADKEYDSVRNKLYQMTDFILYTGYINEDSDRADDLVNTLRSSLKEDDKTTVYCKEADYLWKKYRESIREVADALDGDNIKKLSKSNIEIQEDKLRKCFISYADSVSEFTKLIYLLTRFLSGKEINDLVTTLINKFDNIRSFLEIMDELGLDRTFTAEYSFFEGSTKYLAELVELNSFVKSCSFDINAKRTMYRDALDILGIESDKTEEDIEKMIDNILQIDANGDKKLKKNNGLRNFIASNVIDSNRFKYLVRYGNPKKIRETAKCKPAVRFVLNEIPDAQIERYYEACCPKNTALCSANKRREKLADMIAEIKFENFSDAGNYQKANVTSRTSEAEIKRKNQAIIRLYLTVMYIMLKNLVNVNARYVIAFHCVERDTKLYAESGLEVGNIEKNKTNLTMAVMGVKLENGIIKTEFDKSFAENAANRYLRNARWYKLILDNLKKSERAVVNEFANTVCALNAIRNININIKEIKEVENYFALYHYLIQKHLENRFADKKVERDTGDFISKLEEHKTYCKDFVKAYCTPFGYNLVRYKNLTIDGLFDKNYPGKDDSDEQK
Method Summary: crRNA (strand 1, pre-loaded); Mg2+; 40 mM Tris-HCl pH 7.5, 150 mM NaCl, 6 mM MgCl2, 1 mM DTT, 0.1% Tween-20, 0.2 mg/ml BSA; 25 C; 10 min per concentration, then washed
Assay Conditions: tags: His6-TwinStrep-SUMO cleaved; N-terminal SNAP kept (SNAP-Surface 488); label: 3' end held by stalled T7 RNA polymerase
The entries below come with measured Kd values attached.
Field format: number, assumed nM, no unit text.

| Binder | Property Label | Result Value |
| --- | --- | --- |
| target 1 insU 3' of 18,insG 3' of 9 (mixed) RNA 1: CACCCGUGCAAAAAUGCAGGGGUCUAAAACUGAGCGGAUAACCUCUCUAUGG RNA 2: GGGAAUGGAUCCACAUCUACGAAUUCGUACCAUAUGAGAGGUUAGUCCGCUCACCGAGAUCGGAAGAGCACACGU | Kd | 67 |
| target 2 MT 5'PFS AAC 3'PFS CUG (mixed) RNA 1: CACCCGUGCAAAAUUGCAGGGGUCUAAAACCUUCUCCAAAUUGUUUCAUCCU RNA 2: GGGAAUGGAUCCACAUCUACGAAUUCAACAGGAUGAAACAAUUUGGAGAAGCUGAGAUCGGAAGAGCACACGU | Kd | 7.3 |
| target 1 MT 5'PFS GGG 3'PFS UUA (mixed) RNA 1: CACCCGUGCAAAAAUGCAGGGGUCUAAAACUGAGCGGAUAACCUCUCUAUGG RNA 2: GGGAAUGGAUCCACAUCUACGAAUUCGGGCCAUAGAGAGGUUAUCCGCUCAUUAAGAUCGGAAGAGCACACGU | Kd | 16.8 |

Item under review: target 1 MT 5'PFS AGC 3'PFS CUU (mixed) RNA 1: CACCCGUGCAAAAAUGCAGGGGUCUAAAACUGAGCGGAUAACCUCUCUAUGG RNA 2: GGGAAUGGAUCCACAUCUACGAAUUCAGCCCAUAGAGAGGUUAUCCGCUCACUUAGAUCGGAAGAGCACACGU . Reported Kd?
9.35

Item under review: target 3 insA 3' of 3,insG 3' of 2 (mixed) RNA 1: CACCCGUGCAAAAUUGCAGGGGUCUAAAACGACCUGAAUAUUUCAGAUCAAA RNA 2: GGGAAUGGAUCCACAUCUACGAAUUCGUUUUUGAUCUGAAAUAUUCAGGAUGCUGCAGAUCGGAAGAGCACACGU . Reported Kd?
24.6

Item under review: target 2 MT 5'PFS CAU 3'PFS CUG (mixed) RNA 1: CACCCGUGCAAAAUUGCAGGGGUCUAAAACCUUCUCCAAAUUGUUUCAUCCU RNA 2: GGGAAUGGAUCCACAUCUACGAAUUCCAUAGGAUGAAACAAUUUGGAGAAGCUGAGAUCGGAAGAGCACACGU . Reported Kd?
5.4

Item under review: target 1 insA 3' of 13,insC 3' of 13 (mixed) RNA 1: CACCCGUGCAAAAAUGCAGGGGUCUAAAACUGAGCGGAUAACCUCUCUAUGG RNA 2: GGGAAUGGAUCCACAUCUACGAAUUCGUACCAUAGAGAGACGUUAUCCGCUCACCGAGAUCGGAAGAGCACACGU . Reported Kd?
23
